- system.tested: Large T antigen (Simian virus 40, UniProt P03070);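 also: Confirmatory-stage PubChem screen for compounds that inhibit SV40 T antigen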
- Sequence (P03070 whole entry): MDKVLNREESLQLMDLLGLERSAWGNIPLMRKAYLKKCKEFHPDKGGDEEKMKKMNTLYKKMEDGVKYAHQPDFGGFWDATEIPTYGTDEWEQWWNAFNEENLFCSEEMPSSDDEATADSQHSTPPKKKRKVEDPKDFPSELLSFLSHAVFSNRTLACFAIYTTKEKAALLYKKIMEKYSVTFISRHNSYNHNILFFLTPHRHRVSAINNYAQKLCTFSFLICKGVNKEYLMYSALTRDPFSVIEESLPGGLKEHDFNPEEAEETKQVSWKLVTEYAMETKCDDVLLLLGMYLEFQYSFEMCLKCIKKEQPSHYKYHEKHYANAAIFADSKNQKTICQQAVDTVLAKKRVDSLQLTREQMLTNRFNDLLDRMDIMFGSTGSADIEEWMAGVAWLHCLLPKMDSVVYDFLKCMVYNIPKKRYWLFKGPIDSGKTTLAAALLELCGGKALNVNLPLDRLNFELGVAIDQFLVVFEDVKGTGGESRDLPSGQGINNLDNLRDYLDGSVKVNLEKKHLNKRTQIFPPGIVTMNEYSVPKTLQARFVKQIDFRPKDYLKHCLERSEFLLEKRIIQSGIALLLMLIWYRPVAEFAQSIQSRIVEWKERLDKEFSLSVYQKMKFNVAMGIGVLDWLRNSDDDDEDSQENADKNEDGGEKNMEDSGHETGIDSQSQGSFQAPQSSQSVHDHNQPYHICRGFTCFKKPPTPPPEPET
- Assay type: functional, Betapolyomavirus macacae
Active and inactive are the calls of the source.
Some molecules, each annotated with its measured IC50.
property.label: IC50

{"smiles.input": "C/N=c1\\scc(C)n1/N=C/c1ccc(O)cc1", "system.tested": "Large T antigen (Simian virus 40, UniProt P03070)", "property.label": "IC50", "recorded.result": "8.35 µM (active)"}
{"smiles.input": "Cc1ccc2cc(C=C3C(=O)NC(=O)NC3=O)c(O)nc2c1", "system.tested": "Large T antigen (Simian virus 40, UniProt P03070)", "property.label": "IC50", "recorded.result": "> 100 µM (active)"}
{"smiles.input": "Cc1c(N2C(=O)/C(=C\\c3ccccc3O)SC2=S)c(=O)n(-c2ccccc2)n1C", "system.tested": "Large T antigen (Simian virus 40, UniProt P03070)", "property.label": "IC50", "recorded.result": "45.2 µM (active)"}
{"smiles.input": "CCc1cc(S)n2c(nc3ccccc32)c1C#N", "system.tested": "Large T antigen (Simian virus 40, UniProt P03070)", "property.label": "IC50", "recorded.result": "99.8 µM (active)"}
{"smiles.input": "CCNc1ccc(N=Nc2c(C)n(C)n(-c3ccccc3)c2=O)cc1", "system.tested": "Large T antigen (Simian virus 40, UniProt P03070)", "property.label": "IC50", "recorded.result": "7.88 µM (active)"}
{"smiles.input": "Nc1nc(-c2cccs2)c(NC(=O)c2ccccc2)s1", "system.tested": "Large T antigen (Simian virus 40, UniProt P03070)", "property.label": "IC50", "recorded.result": "23.2 µM (active)"}

----------
- system.tested: Replicative DNA helicase DnaB (Mycobacterium tuberculosis, UniProt P9WMR3)
- Sequence (P9WMR3 1-399, added parts left off): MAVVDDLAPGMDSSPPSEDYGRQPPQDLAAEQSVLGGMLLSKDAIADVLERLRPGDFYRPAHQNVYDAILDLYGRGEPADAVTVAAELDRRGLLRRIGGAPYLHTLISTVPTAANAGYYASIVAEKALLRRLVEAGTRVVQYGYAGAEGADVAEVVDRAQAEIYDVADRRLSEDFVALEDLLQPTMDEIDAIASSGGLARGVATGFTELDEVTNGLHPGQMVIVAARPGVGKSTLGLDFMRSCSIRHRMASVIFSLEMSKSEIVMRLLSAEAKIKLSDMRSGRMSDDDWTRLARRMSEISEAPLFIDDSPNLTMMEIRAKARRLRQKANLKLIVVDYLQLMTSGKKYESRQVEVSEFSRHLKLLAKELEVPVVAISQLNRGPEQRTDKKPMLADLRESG
- assay.text: DnaB intein splicing inhibitors, dose response, biochemical, cell-free fluorescence (AID 449749)
- Type: functional
Activity calls are given as the source filed them.
Possible outcomes: TRUE = active, FALSE = inactive

{"compound": "Cn1cnc([N+](=O)[O-])c1Sc1ccc(C(C)(C)C)cc1", "classification": "TRUE"}
{"compound": "Cc1n[nH]c2c1C(CC(C)C)C(C#N)=C(N)O2 (stereo unspecified)", "classification": "TRUE"}
{"compound": "CCOC(=O)C(C#N)C(c1cccnc1)c1c(C)[nH][nH]c1=O (stereo unspecified)", "classification": "TRUE"}
{"compound": "Nc1ccc2c(c1)C(=O)C(=O)c1ccccc1-2", "classification": "TRUE"}
{"compound": "O=C(Nc1ccc(Cl)cc1)C(Cl)C(=O)c1ccccc1 (stereo unspecified)", "classification": "TRUE"}
{"compound": "CCOC(=O)CS(=O)(=O)c1nc(-c2ccc(F)cc2)cc(C(F)(F)F)n1", "classification": "TRUE"}
{"compound": "CC1CCCC(NC(=O)NC(=O)CCl)C1C (stereo unspecified)", "classification": "TRUE"}
{"compound": "N#CC1=C(N)C(C#N)(C#N)C(c2cccnc2)C2CN(C(=O)OCc3ccccc3)CC=C12 (stereo unspecified)", "classification": "FALSE"}
{"compound": "Cn1c(=O)c([N+](=O)[O-])c(-n2cnc3ccccc32)c2ccccc21", "classification": "TRUE"}
{"compound": "COC(=O)[C@@H]1[C@@H](C(=O)OC)C2(c3ccccc3-c3ccccc32)N(c2ccc(Cl)cc2)N1C#N", "classification": "FALSE"}
{"compound": "Oc1cc(-c2ccc(Cl)c(Cl)c2)[nH]n1", "classification": "TRUE"}
{"compound": "COc1ccccc1-n1nnnc1S(=O)(=O)Cc1ccc(Cl)cc1", "classification": "TRUE"}
{"compound": "CC(=O)c1ccc(OC(=O)c2cccs2)cc1", "classification": "TRUE"}
{"compound": "CN(C)C(=O)c1ccc2c(c1[N+](=O)[O-])C(=O)c1ccccc1C2=O", "classification": "TRUE"}
{"compound": "O=C1C(Cl)=C(N2CCCCC2)C(=O)C(Cl)=C1c1cnc(N2CCCCC2)s1", "classification": "FALSE"}
